Taken from patent US9403830B2.

Protein target, amino acids: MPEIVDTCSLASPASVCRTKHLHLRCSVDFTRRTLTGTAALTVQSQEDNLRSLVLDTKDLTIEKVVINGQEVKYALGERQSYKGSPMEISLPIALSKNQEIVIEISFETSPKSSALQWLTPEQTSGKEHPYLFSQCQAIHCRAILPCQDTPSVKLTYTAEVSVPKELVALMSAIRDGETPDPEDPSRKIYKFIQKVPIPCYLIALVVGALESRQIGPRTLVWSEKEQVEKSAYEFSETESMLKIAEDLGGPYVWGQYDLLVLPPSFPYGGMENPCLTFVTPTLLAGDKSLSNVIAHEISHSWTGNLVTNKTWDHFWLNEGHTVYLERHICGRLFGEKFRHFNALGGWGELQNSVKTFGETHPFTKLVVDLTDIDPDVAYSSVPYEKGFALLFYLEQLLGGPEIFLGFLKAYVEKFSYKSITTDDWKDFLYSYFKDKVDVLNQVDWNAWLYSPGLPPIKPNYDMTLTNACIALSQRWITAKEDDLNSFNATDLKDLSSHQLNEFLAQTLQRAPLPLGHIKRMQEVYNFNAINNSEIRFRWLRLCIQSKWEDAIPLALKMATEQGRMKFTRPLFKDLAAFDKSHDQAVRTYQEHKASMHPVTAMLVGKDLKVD
Item-by-item account of IC50
API: value field is a number in nM; no unit string.

Example molecules with recorded IC50:
>>> quantitativeresult("CC(C)(O)C(=O)NC1CCN(CCn2cc3cc(Oc4ccc(-c5ccn[nH]5)cn4)ccc3n2)CC1 [Example 112]")
2.1
>>> quantitativeresult("CN(Cc1nc2cc(Oc3ccc(-c4ccn[nH]4)cc3)ccc2[nH]1)C(=O)C1CC1 [Example 233]")
0.24
>>> quantitativeresult("C[C@H]1COC[C@H](C)N1Cc1nc2cc(Oc3ccc(-c4ccn[nH]4)cc3)ccc2[nH]1 [Example 55]")
0.13
>>> quantitativeresult("COC[C@H](C)NCc1nc2cc(Oc3ccc(-c4ccn[nH]4)cc3)ccc2[nH]1 [Example 189]")
0.23
>>> quantitativeresult("OC1CCN(Cc2ccc3cc(Oc4ccc(-c5ccn[nH]5)cn4)ccc3n2)CC1 [Example 204]")
0.98
>>> quantitativeresult("CC(=O)N1CCN(Cc2ccc3cc(Oc4ccc(-c5ccn[nH]5)cn4)ccc3c2)CC1 [Example 2]")
0.39
>>> quantitativeresult("c1cc(-c2ccc(Oc3ccc4[nH]c(CNC5CCCC5)nc4c3)cc2)[nH]n1 [Example 188]")
0.13

**Query** Fill blank: measured IC50 of the molecule CC(=O)NC1CCN(Cc2ccc3cc(Oc4ccc(-c5ccn[nH]5)cn4)ccc3c2)CC1 [Example 6] is ____.
**Result** 0.37

###

human LTA4 hydrolase (Homo sapiens) data, read-out IC50
Param answer (str): number followed by unit.

Some solved cases for reference:
>>> result("COC1CCN(Cc2nc3cc(Oc4ccc(-c5ccn[nH]5)cc4)ccc3[nH]2)C1 (centres unmarked)")
"0.11 nM"
>>> result("CC(C)N1CCN(Cc2nc3cc(Oc4ccc(-c5ccn[nH]5)cc4)ccc3[nH]2)CC1")
"0.14 nM"
>>> result("O=C(CO)N1C2CCC1CN(Cc1ccc3cc(Oc4ccc(-c5ccn[nH]5)cn4)ccc3n1)C2")
"0.71 nM"
>>> result("O=C(CO)N1CC2CCC(C1)N2Cc1ccc2cc(Oc3ccc(-c4ccn[nH]4)cn3)ccc2n1")
"0.28 nM"
>>> result("c1cc(-c2ccc(Oc3ccc4c(cnn4CCN4CCOCC4)c3)cc2)[nH]n1")
"0.91 nM"
>>> result("CCCN(CCOC)Cc1nc2cc(Oc3ccc(-c4ccn[nH]4)cc3)ccc2[nH]1")
"0.2 nM"

**Query** What value of IC50 on human LTA4 hydrolase (Homo sapiens) does COCC(=O)N1CCN(Cc2ccc3cc(Oc4ccc(-c5ccn[nH]5)cn4)ccc3c2)CC1 have?
**Result** 0.63 nM

**Query** // same read-out, input: CS(=O)(=O)CC(=O)N1CCN(Cc2ccc3cc(Oc4ccc(-c5ccn[nH]5)cn4)ccc3n2)CC1
**Result** 2 nM

###

- targetOrSystem: human LTA4 hydrolase (Homo sapiens, UniProt P09960)
- Sequence (P09960 1-611): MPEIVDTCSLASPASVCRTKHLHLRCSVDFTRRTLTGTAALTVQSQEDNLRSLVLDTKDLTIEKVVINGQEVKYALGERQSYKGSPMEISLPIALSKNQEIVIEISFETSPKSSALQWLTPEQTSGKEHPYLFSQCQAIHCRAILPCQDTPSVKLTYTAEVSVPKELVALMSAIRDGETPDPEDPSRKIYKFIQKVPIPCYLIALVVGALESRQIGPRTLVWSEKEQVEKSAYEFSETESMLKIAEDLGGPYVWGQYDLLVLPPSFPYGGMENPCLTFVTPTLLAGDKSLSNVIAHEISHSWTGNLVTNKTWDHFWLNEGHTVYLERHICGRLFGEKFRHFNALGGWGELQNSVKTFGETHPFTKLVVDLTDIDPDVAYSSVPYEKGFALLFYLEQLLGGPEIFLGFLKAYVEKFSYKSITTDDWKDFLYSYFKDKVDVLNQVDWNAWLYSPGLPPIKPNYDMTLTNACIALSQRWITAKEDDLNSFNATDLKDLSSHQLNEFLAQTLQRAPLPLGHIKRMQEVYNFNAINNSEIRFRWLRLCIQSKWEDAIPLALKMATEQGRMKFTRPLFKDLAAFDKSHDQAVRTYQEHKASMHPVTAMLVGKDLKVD
Hi all, reminder that labels come from IC50, split as interval 1 = under 0.2 nM, interval 2 = from 0.2 nM up to 0.8 nM, interval 3 = 0.8 nM and over

The examples below pair each entry with its known result.
>>> qualitativelabel("CC(=O)NC1CCN(Cc2ccc3cc(Oc4ccc(-c5cc[nH]n5)cn4)ccc3n2)CC1")
"interval 3"
>>> qualitativelabel("CC(=O)N1CCN(CCC2COc3cc(Oc4ccc(-c5ccn[nH]5)cn4)ccc32)CC1 (centres unmarked)")
"interval 3"
>>> qualitativelabel("CC(=O)N[C@@H]1C[C@H]2CC[C@@H](C1)N2Cc1ccc2cc(Oc3ccc(-c4ccn[nH]4)cc3)ccc2n1")
"interval 1"
>>> qualitativelabel("CC(=O)N1CC2CCC(C1)N2Cc1ccc2cc(Oc3ccc(-c4ccn[nH]4)cc3)ccc2n1")
"interval 1"
>>> qualitativelabel("O=C1CCC2CN(Cc3ccc4cc(Oc5ccc(-c6ccn[nH]6)cn5)ccc4n3)CCN12 (centres unmarked)")
"interval 3"

**Query** Assign a bin to N#C[C@@H]1CCN(Cc2ccc3cc(Oc4ccc(-c5ccn[nH]5)cn4)ccc3n2)C1
**Result** interval 3

**Query** Do the same for CC(=O)N1CCN(Cc2ccc3cc(Oc4ccc(-c5ccn[nH]5)cc4)ccc3n2)CC1 please
**Result** interval 2

**Query** Same lookup for c1cc(-c2ccc(Oc3ccn4cc(CN5CCOCC5)nc4c3)cc2)[nH]n1 , please.
**Result** interval 3

**Query** Input COCC1CCCCN1Cc1nc2cc(Oc3ccc(-c4ccn[nH]4)cc3)ccc2[nH]1 (centres unmarked)
**Result** interval 1

**Query** Also check C[C@H]1CCCCN1Cc1nc2cc(Oc3ccc(-c4ccn[nH]4)cc3)ccc2[nH]1
**Result** interval 1

**Query** Entry c1cc(-c2ccc(Oc3ccc4nc(CN5CCOCC5)oc4c3)cc2)[nH]n1 please
**Result** interval 2

**Query** And CN(Cc1nc2cc(Oc3ccc(-c4ccn[nH]4)cc3)ccc2[nH]1)C1CCCC1 ?
**Result** interval 1

**Query** Then NC(=O)C1CCN(Cc2ccc3cc(Oc4ccc(-c5ccn[nH]5)cn4)ccc3c2)CC1 ?
**Result** interval 2

###

Protein target, amino acids: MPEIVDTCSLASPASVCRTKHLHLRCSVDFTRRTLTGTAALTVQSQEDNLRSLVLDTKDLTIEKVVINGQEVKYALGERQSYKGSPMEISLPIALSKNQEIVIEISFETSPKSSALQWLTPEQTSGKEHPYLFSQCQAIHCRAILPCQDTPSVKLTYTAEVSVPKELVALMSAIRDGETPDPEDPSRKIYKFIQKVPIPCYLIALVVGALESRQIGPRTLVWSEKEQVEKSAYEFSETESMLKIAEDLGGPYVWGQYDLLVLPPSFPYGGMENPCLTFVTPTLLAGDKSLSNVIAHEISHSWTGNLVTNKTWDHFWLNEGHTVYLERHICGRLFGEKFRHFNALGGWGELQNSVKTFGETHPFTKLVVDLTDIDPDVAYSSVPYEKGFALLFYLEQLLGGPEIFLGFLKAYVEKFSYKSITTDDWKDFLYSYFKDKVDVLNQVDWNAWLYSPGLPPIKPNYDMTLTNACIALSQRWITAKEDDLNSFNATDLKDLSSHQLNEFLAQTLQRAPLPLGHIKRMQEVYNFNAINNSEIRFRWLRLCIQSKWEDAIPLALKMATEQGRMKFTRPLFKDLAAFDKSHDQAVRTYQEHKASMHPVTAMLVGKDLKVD
Listing of recorded IC50 by entry.
For clarity, give the value followed by its unit.

Sample records with IC50:
>>> result("COC[C@H]1CCCN1Cc1nc2cc(Oc3ccc(-c4ccn[nH]4)cc3)ccc2[nH]1")
"0.14 nM"
>>> result("CC(=O)N[C@@H]1C[C@H]2CC[C@@H](C1)N2CC1Cc2ccc(Oc3ccc(-c4ccn[nH]4)cc3)cc2O1 (stereo partly shown)")
"0.25 nM"
>>> result("COCCN(C)Cc1ccc2cc(Oc3ccc(-c4ccn[nH]4)cn3)ccc2n1")
"0.97 nM"
>>> result("CN(Cc1nc2cc(Oc3ccc(-c4ccn[nH]4)cc3)ccc2[nH]1)CC1COCCO1 (stereo not shown)")
"0.36 nM"
>>> result("CC(=O)N1CC2CCC1CN2Cc1ccc2cc(Oc3ccc(-c4ccn[nH]4)cn3)ccc2n1 (stereo not shown)")
"0.46 nM"
>>> result("O=C1OCCN1C1CCN(Cc2ccc3cc(Oc4ccc(-c5ccn[nH]5)cn4)ccc3n2)CC1")
"0.65 nM"
>>> result("CC(=O)N[C@@H]1C[C@H]2CC[C@@H](C1)N2Cc1ccc2cc(Oc3ccc(-c4cc[nH]n4)cn3)ccc2n1")
"0.43 nM"
>>> result("c1cc(-c2ccc(Oc3ccc4nc(CN5CCC5)ccc4c3)nc2)[nH]n1")
"0.22 nM"
>>> result("O=C1CC[C@@H](OCc2cn3cc(Oc4ccc(-c5ccn[nH]5)cc4)ccc3n2)CN1")
"5.3 nM"
>>> result("CC(=O)N1CCN(Cc2cnc3cc(Oc4ccc(-c5ccn[nH]5)cc4)ccc3n2)CC1")
"3.5 nM"

**Query** # input molecule: c1cc(-c2ccc(Oc3ccc4nc(CN5C[C@@H]6C[C@H]5CO6)ccc4c3)nc2)[nH]n1 ; wanted: its IC50
**Result** 0.74 nM

**Query** Now the same for O[C@H]1CCN(Cc2nc3ccc(Oc4ccc(-c5ccn[nH]5)cc4)cc3[nH]2)C1
**Result** 0.14 nM

**Query** // query: CC(=O)N1CCN(CCCn2cc3cc(Oc4ccc(-c5ccn[nH]5)cc4)ccc3n2)CC1
**Result** 0.83 nM

**Query** Try the molecule CCC(=O)N1CCN(Cc2ccc3cc(Oc4ccc(-c5ccn[nH]5)cc4)ccc3n2)CC1
**Result** 0.45 nM

**Query** Try this molecule too: COC(=O)c1ccc(CN2C[C@@H]3C[C@H]2CN3Cc2nc3cc(Oc4ccc(-c5ccn[nH]5)cc4)ccc3[nH]2)cc1
**Result** 0.32 nM

**Query** c1cc(-c2ccc(Oc3ccc4[nH]c(C5(N6CCOCC6)CC5)nc4c3)cc2)[nH]n1 , same question.
**Result** 0.13 nM
